target: pooled human IgG
Observation Type: Enzyme Activity Endpoint Assay: IgG (ng/µL)
# output: bare number, implied unit ng/µL

INSERT INTO results (protein, observation_type, val) VALUES
  ('PRT-529 (protein) MANQEIRYSEETPKTITSVWTKGVTPPTDFIKNEDVLHAPYIANQGWYDITKTFNGKDDLLCGAATAGNMLHWWFDQNKEEIENYLKKHPEKQKINFNGEQMFDVKEAIDTKDSQTDSALFEYFKDKAFPNLSTKHLGVMPDLVLDMFINGYYLSLGKHGPTPVKRGTKDPRGGIFDAVFTRGDQTKLLTARHDFKEKTLNEISDLIKQELTEGKALALSHTYANVRINHVINLWGADFNSEGNLEAIYVTDSDSNASIGMKKYYVGVNAAGKVAISAKEIEGDNIGAQVLGLFTLSTGQDIWEQTNLEHHHHHH', 'Enzyme Activity Endpoint Assay: IgG', 508);

Okay, next one:
INPUT: Specify measured Enzyme Activity Endpoint Assay: IgG for PRT-279 (protein) MVTSVWTKGVTPPTDFIYGEDVLHAPYKAGQGWYDITKLFNGKDNLLCGAATAGNMLHWWFDQNKEQIENYLKKHPEKQKIIFNNQELFDLKAAIDTKDSQLDSKLFEYFLEKAFPYLSTKHLGVFPDHVIDMFINGYRLSLTNHGPTPVKRGSKDKRGGIFDAVFTRGVQSKLLTNRHDLKNKTLKEISDLIKQELTEGKALGISHTYANVRINHVINLWGADFDAEGNLEAIAVTDSDTNASIGMKKYFVGVNSSGKVAISAKEIEEDNIGAQVLGLFTLSTGQDIWNQTN .
OUTPUT: 48
